assayed-system: FUT7 (Fucosyltransferase 7) (Homo sapiens, UniProt Q11130)
Sequence (Q11130 whole entry): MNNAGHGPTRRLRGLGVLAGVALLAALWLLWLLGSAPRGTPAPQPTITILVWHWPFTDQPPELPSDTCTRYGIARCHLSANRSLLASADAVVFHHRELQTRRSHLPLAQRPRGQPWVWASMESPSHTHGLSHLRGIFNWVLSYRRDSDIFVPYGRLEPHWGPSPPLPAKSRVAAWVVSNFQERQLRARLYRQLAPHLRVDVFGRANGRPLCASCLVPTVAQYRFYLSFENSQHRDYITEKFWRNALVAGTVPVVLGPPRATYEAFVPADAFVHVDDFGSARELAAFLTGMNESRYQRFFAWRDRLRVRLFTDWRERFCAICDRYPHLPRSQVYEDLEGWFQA
result-type: IC50 (nM)

O=C(O)c1cc(O)c(O)c(O)c1: 600
